Measured values drawn from PubChem BioAssay (NCI) for this set.

- experimentDescription: NCI Yeast Anticancer Drug Screen. Data for the rad18 strain (AID 177)
- reportedConditions: S. cerevisiae rad18 mutant growth inhibition; at 1.2 µM; stronger effect = higher value
About 79,000 compounds went through this panel and 15% of them were active in at least one assay; those are over-represented in the sample as a whole.
// growth inhibition lookup, one value per entry
measurementName: growth inhibition (%)

CC(=O)OCCOCNC(=S)N/N=C(\C)c1cnccn1 : 7
C[S+](C)C1(c2ccccc2)C(=O)c2ccccc2C1=O : 5
O=C([O][Sn]([O]C(=O)c1ccccc1)([c]1ccccc1)[c]1ccccc1)c1ccccc1 : 0
C/C(=N/NC(=S)N1CCCCCC1)c1cccc(/C(C)=N\NC(=S)N2CCCCCC2)n1 : 10
CCN(CC)CCNc1ccc([N+](=O)[O-])c2nc3ccc(OC)cc3c(N)c12 : 1
COc1ccc2nc3c([N+](=O)[O-])ccc(NCCN(C)C)c3c(NCCN(C)C)c2c1 : 6
CCCCCCc1cc(C(=O)OC/C(C)=N/NC(N)=O)c2ccccc2n1 : -1
CC/C(=C(\c1ccccc1)c1ccc(OCCN(C)C)cc1)c1ccccc1 : 13
Brc1ccc(-c2cc3c(cc2C2SCCS2)OCO3)cc1 : -23
COC(=O)c1ccc(CCC2=CC(=O)C(Br)=CC2=O)cc1 : -25
CC(=O)[O][Bi]([c]1ccccc1)[c]1ccccc1 : 15

###

- experimentDescription: NCI Yeast Anticancer Drug Screen. Data for the mlh1 strain (AID 171);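 further: 0% = growth of vehicle-treated control cultures of the same strain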
- reportedConditions: S. cerevisiae mlh1 strain growth inhibition; at 1.2 µM; stronger effect = higher value
Compounds without any hit were thinned out: in the full panel of roughly 79,000, 15% have a hit.
measurementName: growth inhibition (%)

O=C1c2ccccc2-c2n[nH]c3cccc1c23 : -42
CO[C@H]1C[C@](C)(O)Cc2cc3c(c(O)c21)C(=O)c1c(O)cc2c(c1C3=O)O[C@@H]1O[C@@]2(C)[C@H](O)[C@@H](N(C)C)[C@@H]1O : -42
CN(C)c1nc2sc3c(c2c(=O)o1)CCCC3 : -3
[O-][n+]1c2ccc(O)cc2nc2ccc(Cl)cc21 : 4
O=C([O][Sn]([O]C(=O)c1ccccc1)([c]1ccccc1)[c]1ccccc1)c1ccccc1 : 1
CCCN(CCC)CC(O)c1cc(-c2ccc(Cl)cc2)nc2c(C)c(Cl)ccc12 (configuration not stated) : -3
COc1cc(C2c3cc4c(cc3OC(Nc3ccccc3)C2C)OCO4)cc(OC)c1O (configuration not stated) : -3
O=Nc1c(NO)ccc2nn(-c3ccccc3)nc12 : 6
CSC(=S)Nc1cccc(C)n1 : -42
O=C(Cc1csc2[n+]1C(=O)/C(=C/c1ccc(Cl)cc1)S2)Nc1ccccc1 : -1
O=C1C=CC(=Nc2ccc3c(c2)Cc2cc(NC(=O)C(F)(F)F)ccc2-3)O1 : 3
OC(c1ccc(F)cc1)(c1ccc(F)cc1)C1CC1 : -39
O=C1C2C(C(=O)N1c1ccc(OCc3ccccc3)cc1)C1c3ccccc3C2C2CCCCN21 (configuration not stated) : 1
BrCC[P+](c1ccccc1)(c1ccccc1)c1ccccc1 : -38
CCN(CC)C(C)(C)C(=O)/C=C/c1ccccc1 : 2
COc1ccccc1N=NC(C(=O)c1ccccc1)C(=O)c1ccccc1 : -25
CC[C@@]1(O)C(=O)OCc2c1cc1n(c2=O)Cc2cc3c(N)cccc3nc2-1 : 1
Clc1ccc(SC(/C=C/NNC2=NC(c3ccccc3)C(c3ccccc3)=NN2)c2ccccc2)cc1 (configuration not stated) : -3
COc1ccc(Br)c(C(=O)Sc2nnnn2-c2cccc(Cl)c2)c1 : -14
O=C1C=CC(=C(c2ccccc2)c2ccccc2)c2ccccc21 : 2
O=[n+]1c2ccc(Cl)cc2n([O-])c2ccc(Cl)cc21 : -1
COc1cc(C2c3cc4c(cc3OC(NNc3ccccc3)C2C)OCO4)cc(OC)c1OC (configuration not stated) : 16

###

- experimentDescription: NCI Yeast Anticancer Drug Screen. Data for the rad52 strain (AID 147);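 further: 0% = growth of vehicle-treated control cultures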
- reportedConditions: S. cerevisiae rad52 mutant growth inhibition; at 3.7 µM
About 79,000 compounds went through this panel and 15% of them were active in at least one assay; those are over-represented in the sample as a whole. Active and inactive are the calls of the source. No stated cut-off is given here; in the data, active means growth inhibition above about 70%; inactive means the rest.
Labels: 1 (active), -1 (inactive)

Clc1ccc(SC(/C=C/NNC2=NC(c3ccccc3)C(c3ccccc3)=NN2)c2ccccc2)cc1 (stereo not drawn) : -1
CC(=O)Nc1ccc(SC(C)=O)cc1 : -1
CCNc1nnc(CSc2nc(-c3ccccc3)c(-c3ccccc3)[nH]2)s1 : -1
CC(C)NC(=O)OCc1c(COC(=O)NC(C)C)c(-c2ccc(Cl)c(Cl)c2)n2c1CCC2 : -1
O=C(N=Nc1cc(Cl)ccc1Cl)NNc1cc(Cl)ccc1Cl : -1
S=C(N/N=C(/c1ccccc1)c1ccccn1)N1CCCCCC1 : -1
O=C(CC(=O)n1nc(-c2ccccc2)c(N=Nc2ccccc2C(=O)O)c1-c1ccccc1)Nc1ccc(Cl)cc1 : -1
Cn1c(=O)c(-c2ccccc2)c(N=[N+]=[N-])c2ccccc21 : -1
OC1(c2ccccc2)CSC2=Nc3ccccc3C3CCN1N23 (stereo not drawn) : -1
O=CC=C(c1ccccc1)c1ccccc1 : -1
O=C(c1ccc(Cl)cc1Cl)C(Cl)Cl : -1
CC(C)(CN1CCCCC1)C(=O)CC(SCCS(=O)(=O)O)c1ccc(Br)cc1 (stereo not drawn) : -1
O=[N+]([O-])c1cccc2nc3ccccc3c(NCCCN3CCOCC3)c12 : 1
CN1c2ccc(Cl)cc2C(=O)NC1c1ccc([N+](=O)[O-])s1 (stereo not drawn) : -1
COc1ccc(Br)c(C(=O)Sc2nnnn2-c2cccc(Cl)c2)c1 : -1
S=C(N/N=C/c1ccccn1)Nc1ccc(Cl)cc1 : -1
Cc1nn(-c2cc(Cl)ccc2[N+](=O)[O-])c(C)c1Cl : -1
CC/C(=C(\c1ccccc1)c1ccc(OCCN(C)C)cc1)c1ccccc1 : -1
CC[n+]1ccc2c(C)c3[nH]c4ccc(O)cc4c3c(C)c2c1 : -1
O=C1C2CC[C@@H]3C(=O)C(Cl)(Cl)[C@@H]3CCC2C1(Cl)Cl (stereo partly drawn) : -1
Cc1cc(CO)c(O)c(CNCc2cc(C)cc(CO)c2O)c1 : -1
COC(=O)c1ccc(NCC2=CC(=O)C=CC2=O)cc1O : -1
COC1=CC(=O)C(C2(OC(C)C)OC(=O)C(Cl)=C2Cl)=CC1=O (stereo not drawn) : -1

###

# growth inhibition per entry
- experimentDescription: NCI Yeast Anticancer Drug Screen. Data for the rad14 strain (AID 159);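 further: 0% = growth of vehicle-treated control cultures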
- reportedConditions: S. cerevisiae rad14 strain growth inhibition; at 11.0 µM; stronger effect = higher value
This is part of a sample that, as a whole, favours compounds with a hit. Of some 79,000 tested, about 15% had one in any assay.
measurementName: growth inhibition (%)

CC1OCC2OC(C)OC(C3C4=C(CC(C)(C)CC4=O)OC4=C3C(=O)CC(C)(C)C4)C2O1 (configuration not stated) : 5
O=C1C=CC(=C(c2ccccc2)c2ccccc2)c2ccccc21 : -2
Cc1nc(-[n+]2nc(-c3ccncc3)nn2-c2ccccc2)sc1C : -7
CCc1ncnc2cc(OCC3CO3)c(OC)cc12 (configuration not stated) : 46
O=C(NC(Nc1ccc(F)c(Cl)c1)(C(F)(F)F)C(F)(F)F)C(C(F)(F)F)C(F)(F)F : 26
O=C(Nc1ccccc1)C(=O)C(C(=O)c1ccccc1)C(c1ccccc1)c1ccccc1 (configuration not stated) : 5
Cc1ccc(S/N=C\c2ccccc2O)cc1 : -4
Cn1c(=O)c(-c2ccccc2)c(N=[N+]=[N-])c2ccccc21 : 5
CCCCCCCCCCCCCCCCCCNC : -16
N#CSc1ccc(S(N)(=O)=O)cc1 : -51
CCCCCCCCNC(=O)C1=C(C)NC(C)=C(C(=O)NCCCCCCCC)C1 : 2
O=[n+]1c2ccc(Cl)cc2n([O-])c2ccc(Cl)cc21 : 4

###

- experimentDescription: NCI Yeast Anticancer Drug Screen. Data for the mec2-1 strain (AID 157)
- reportedConditions: S. cerevisiae mec2-1 strain, at 100.0 µM, stronger effect = higher value
This is part of a sample that, as a whole, favours compounds with a hit. Of some 79,000 tested, about 15% had one in any assay.
measurementName: growth inhibition (%)

CC1OCC2OC(C)OC(C3C4=C(CC(C)(C)CC4=O)OC4=C3C(=O)CC(C)(C)C4)C2O1 (configuration not stated) : 46
CCC(C(=O)O)C1=C(c2ccccc2)CCc2ccccc21 (configuration not stated) : 98
O=[N+]([O-])c1cccc([N+](=O)[O-])c1S(=O)(=O)c1ccccc1 : 95
CCC(=O)Oc1c(Cl)cc(Cl)c2ccccc12 : 32
CN1CCc2ccccc2C1Cc1ccccc1NC(=O)c1sc2ccccc2c1Cl (configuration not stated) : 92
CC(/C=C/c1ccc2c(c1)OCO2)[N+](=O)[O-] (configuration not stated) : 99
COc1ccc(N=C2C(=O)Nc3ccc(Br)cc32)cc1 : -20
COc1cc(C2C3=C(COC3=O)Oc3cc4c(cc32)OCO4)ccc1O (configuration not stated) : 33
CCCCCCc1cc(C(=O)OC/C(C)=N/NC(N)=O)c2ccccc2n1 : -7
Nc1ccc2c(c1)C(=O)c1cccc(N)c1C2=O : 82
Cn1c(N)nc(-c2ccc(Cl)cc2)c1SSc1c(-c2ccc(Cl)cc2)nc(N)n1C : 97
CCC(C)COC(=O)c1ccc(N=Cc2ccc(C=Nc3ccc(C(=O)OCC(C)CC)cc3)cc2)cc1 (configuration not stated) : 8
CC(C)C1=CC2=C[C@H](O)[C@H]3C(C)(C)CCC[C@]3(C)C2=C(O)C1=O : 96
COC(=O)C1=C(C(=O)OC)C2(C)C=CC1O2 (configuration not stated) : 87
CO[C@H]1C[C@](C)(O)Cc2cc3c(c(O)c21)C(=O)c1c(O)cc2c(c1C3=O)O[C@@H]1O[C@@]2(C)[C@H](O)[C@@H](N(C)C)[C@@H]1O : -6
CN(C)CCn1c2c3ccccc3ccc2c2oc(=O)c3ccccc3c21 : 91
OC(COc1cccc2ccccc12)CN1CCOCC1 (configuration not stated) : 39
CC(C)/C(Cl)=N\OC(=O)Nc1ccccc1F : 31
CCC(=O)c1cccc2ccccc12 : -1
O=C(/C=C\c1ccc(Cl)cc1Cl)c1cccs1 : 10
CCCCCCCCCCCCCCCCCCN(C)CC(COP(=O)([O-])OCC[N+](C)(C)C)OC (configuration not stated) : 99
O=C(OCC=C1CCCC1)c1cc([N+](=O)[O-])cc([N+](=O)[O-])c1 : 98
